A collection of molecules and their measured MBC E. coli (ATCC 25922)
system: E. coli (ATCC 25922); conditions: 24 h, ≥99.9% kill
Peptide text beside a SMILES is read from it.
Value expressed in µg/mL; do not type the unit.

Below, each entry is followed by its recorded MBC E. coli (ATCC 25922) result.
N=C(N)NCCC[C@@H]1NC(=O)[C@H](CCCNC(=N)N)NC(=O)[C@H](CCCNC(=N)N)NC(=O)[C@H](CCCNC(=N)N)NC(=O)[C@H](Cc2c[nH]c3ccccc23)NC(=O)[C@H](Cc2c[nH]c3ccccc23)NC(=O)[C@H](Cc2c[nH]c3ccccc23)NC(=O)[C@H](Cc2c[nH]c3ccccc23)NC(=O)[C@H](Cc2c[nH]c3ccccc23)NC(=O)[C@H](CCCNC(=N)N)NC(=O)[C@H](CCCNC(=N)N)NC1=O [6b, [R6W5]] (cyclo(RRRRRRWWWWW)) | 128
N=C(N)NCCC[C@@H]1NC(=O)[C@H](CCCNC(=N)N)NC(=O)[C@H](CCCNC(=N)N)NC(=O)[C@H](Cc2c[nH]c3ccccc23)NC(=O)[C@H](Cc2c[nH]c3ccccc23)NC(=O)[C@H](Cc2c[nH]c3ccccc23)NC(=O)[C@H](Cc2c[nH]c3ccccc23)NC(=O)[C@H](Cc2c[nH]c3ccccc23)NC(=O)[C@H](CCCNC(=N)N)NC(=O)[C@H](CCCNC(=N)N)NC1=O [5b, [R5W5]] | 64
N=C(N)NCCC[C@@H]1NC(=O)[C@H](CCCNC(=N)N)NC(=O)[C@H](CCCNC(=N)N)NC(=O)[C@H](Cc2c[nH]c3ccccc23)NC(=O)[C@H](Cc2c[nH]c3ccccc23)NC(=O)[C@H](Cc2c[nH]c3ccccc23)NC(=O)[C@H](Cc2c[nH]c3ccccc23)NC(=O)[C@H](CCCNC(=N)N)NC(=O)[C@H](CCCNC(=N)N)NC1=O [5a, [R5W4]] | 16
N=C(N)NCCC[C@@H]1NC(=O)[C@H](CCCNC(=N)N)NC(=O)[C@H](CCCNC(=N)N)NC(=O)[C@H](CCCNC(=N)N)NC(=O)[C@H](Cc2c[nH]c3ccccc23)NC(=O)[C@H](Cc2c[nH]c3ccccc23)NC(=O)[C@H](Cc2c[nH]c3ccccc23)NC(=O)[C@H](Cc2c[nH]c3ccccc23)NC(=O)[C@H](CCCNC(=N)N)NC(=O)[C@H](CCCNC(=N)N)NC1=O [6a, [R6W4]] (cyclo(RRRRRRWWWW)) | 32

Ask: Look up MBC E. coli (ATCC 25922) of N=C(N)NCCC[C@@H]1NC(=O)[C@H](CCCNC(=N)N)NC(=O)[C@H](CCCNC(=N)N)NC(=O)[C@H](Cc2c[nH]c3ccccc23)NC(=O)[C@H](Cc2c[nH]c3ccccc23)NC(=O)[C@H](Cc2c[nH]c3ccccc23)NC(=O)[C@H](Cc2c[nH]c3ccccc23)NC(=O)[C@H](CCCNC(=N)N)NC1=O [compound 1, [R4W4]] (cyclo(RRRRWWWW)) and report it.
Reply: 32
